Target: human Siglec-7 on primary human monocyte-derived dendritic cells (human, UniProt Q9Y286 19-467)
Sequence (Q9Y286 19-467): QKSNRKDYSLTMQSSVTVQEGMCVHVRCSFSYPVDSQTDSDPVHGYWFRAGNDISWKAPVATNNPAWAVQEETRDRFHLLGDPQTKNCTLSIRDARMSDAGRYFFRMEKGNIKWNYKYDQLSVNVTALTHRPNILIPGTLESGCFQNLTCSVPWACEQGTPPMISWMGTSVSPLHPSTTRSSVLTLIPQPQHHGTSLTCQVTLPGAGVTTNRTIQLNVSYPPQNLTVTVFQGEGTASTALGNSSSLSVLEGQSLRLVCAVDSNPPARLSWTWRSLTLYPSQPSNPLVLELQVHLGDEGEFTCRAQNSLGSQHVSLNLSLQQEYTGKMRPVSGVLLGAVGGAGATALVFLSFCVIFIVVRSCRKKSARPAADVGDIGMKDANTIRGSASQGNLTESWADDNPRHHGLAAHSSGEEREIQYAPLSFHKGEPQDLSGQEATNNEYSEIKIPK
Test Name: cell-based or functional assay
Measured Parameter: Fold increase in potency compared to AB-H8 (fold)
Give your result in fold as a bare value.

Binder: S7AB-H8.11 (antibody, V domains shown) VH: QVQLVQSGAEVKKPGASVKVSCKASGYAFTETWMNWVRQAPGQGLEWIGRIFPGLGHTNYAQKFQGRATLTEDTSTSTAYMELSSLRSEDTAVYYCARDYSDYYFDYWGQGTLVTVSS VL: DIQMTQSPSSLSASVGDRVTITCRGSQDINTYLNWYQQKPGKAPKLLIYYTSRLHSGVPSRFSGSGSGTDYTLTISSLQPEDFATYYCQGGNTLPWTFGQGTKLEIK
Value Reported: 0.05

Please look up its Fold increase in potency compared to AB-H8: S7AB-H8.5 (antibody, V domains shown) VH: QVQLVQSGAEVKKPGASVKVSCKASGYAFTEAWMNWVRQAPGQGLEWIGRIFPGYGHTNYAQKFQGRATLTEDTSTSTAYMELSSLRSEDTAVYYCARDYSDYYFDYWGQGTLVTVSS VL: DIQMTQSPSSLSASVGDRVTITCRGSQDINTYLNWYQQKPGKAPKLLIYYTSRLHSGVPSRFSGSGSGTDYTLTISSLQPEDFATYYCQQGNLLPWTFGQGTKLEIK 3.9
